Listed next: entries and their corresponding half-life.
procedure-details: in vitro
Format: in vitro ADME, mouse
details: mouse, microsomes; MLM (male CD-1) 0.50 mg/mL, NADPH 1 mM, 1 μM compound, pH 7.4, 37° C., 60 min; read-out: half-life (t1/2)
Kindly provide the numeric value in min only, without the unit symbol.

Which measured half-life value corresponds to `CC[C@@H](C)NC(=O)[C@@H]1C=C2c3cccc4[nH]cc(c34)C[C@H]2N(Cc2ccccc2)C1` ?
1.8

Item: `CCNC(=O)[C@@H]1C=C2c3cccc4[nH]cc(c34)C[C@H]2N(Cc2cccc(O)c2)C1`
4.4

Item: `COc1cccc(CN2C[C@H](C(=O)N3[C@@H](C)C[C@@H]3C)C=C3c4cccc5[nH]cc(c45)C[C@H]32)c1`
1

Item: O=C([C@H]1C=C2c3cccc4[nH]cc(c34)C[C@H]2N(Cc2ccccc2)C1)N1CCCC1 [Compound 84a]
1.8

----------
target-or-system: UniProtKB P08908
Sequence (P08908 whole entry): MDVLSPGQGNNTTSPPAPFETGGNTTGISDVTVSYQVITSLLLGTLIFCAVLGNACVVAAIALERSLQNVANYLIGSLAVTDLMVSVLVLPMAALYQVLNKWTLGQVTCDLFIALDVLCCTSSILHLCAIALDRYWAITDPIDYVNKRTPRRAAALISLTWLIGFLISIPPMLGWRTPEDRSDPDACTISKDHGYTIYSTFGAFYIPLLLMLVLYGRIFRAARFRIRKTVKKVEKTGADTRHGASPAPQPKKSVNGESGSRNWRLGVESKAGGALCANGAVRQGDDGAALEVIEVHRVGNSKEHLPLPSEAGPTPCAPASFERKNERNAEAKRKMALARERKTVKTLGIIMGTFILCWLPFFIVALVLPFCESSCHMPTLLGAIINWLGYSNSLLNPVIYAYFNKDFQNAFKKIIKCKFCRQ
procedure-details: cell-based
details: agonist, Ca2+ flux, CHO cells with Gα15
Listed next: entries and their corresponding EC50.
Kindly provide the numeric value in µM only, without the unit symbol.

Solved entries (count: 4):
>  <chemical-smiles>
CCCN(CC)C(=O)[C@@H]1C=C2c3cccc4[nH]cc(c34)C[C@H]2N(Cc2ccccc2)C1

>  <EC50 / µM>
15.5

$$$$
>  <chemical-smiles>
O=C([C@@H]1C=C2c3cccc4[nH]cc(c34)C[C@H]2N(Cc2ccccc2)C1)N1CCCC1

>  <EC50 / µM>
1.69

$$$$
>  <chemical-smiles>
CCN(CC)C(=O)[C@@H]1C=C2c3cccc4[nH]cc(c34)C[C@H]2N(Cc2ccnc(OC)c2)C1

>  <EC50 / µM>
8.05

$$$$
>  <chemical-smiles>
CC[C@@H](C)NC(=O)[C@@H]1C=C2c3cccc4[nH]cc(c34)C[C@H]2N(Cc2ccccc2)C1

>  <EC50 / µM>
8.71

$$$$

Shift focus to the following entry.
Which measured EC50 value corresponds to `CCN(CC)C(=O)[C@@H]1C=C2c3cccc4[nH]cc(c34)C[C@H]2N(Cc2ccc(F)c(OC)c2)C1` ?
36.4

----------
target-or-system: 5-HT2A receptor (Homo sapiens)
Sequence (P28223 whole entry): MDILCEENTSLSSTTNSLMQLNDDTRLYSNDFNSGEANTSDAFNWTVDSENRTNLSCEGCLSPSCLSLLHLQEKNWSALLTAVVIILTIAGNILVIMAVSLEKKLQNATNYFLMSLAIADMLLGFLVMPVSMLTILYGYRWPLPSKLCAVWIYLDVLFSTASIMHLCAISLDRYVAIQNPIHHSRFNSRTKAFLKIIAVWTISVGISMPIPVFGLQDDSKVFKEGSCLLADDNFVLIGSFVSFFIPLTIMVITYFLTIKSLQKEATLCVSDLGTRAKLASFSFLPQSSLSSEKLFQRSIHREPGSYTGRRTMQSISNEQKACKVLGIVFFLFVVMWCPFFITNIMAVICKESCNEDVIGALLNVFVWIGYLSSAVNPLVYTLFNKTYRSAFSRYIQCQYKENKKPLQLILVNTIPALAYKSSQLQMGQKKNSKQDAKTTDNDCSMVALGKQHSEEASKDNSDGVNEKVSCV
procedure-details: cell-based
Format: cell-based
Set-up: expressed in transfected cells; host or cells: HEK293, stably transfected
details: agonist, Ca2+ flux, HEK293
The label is Criterion met for EC50 below 800 nM and Criterion not met for EC50 equal to or exceeding 800 nM.

Take the compound `CCN(CC)C(=O)[C@@H]1C=C2c3cccc4[nH]cc(c34)C[C@H]2N(Cc2cccs2)C1` and say whether its EC50 is less than 800 nM.
Criterion not met

Item: `C[C@H]1C[C@H](C)N1C(=O)[C@@H]1C=C2c3cccc4[nH]cc(c34)C[C@H]2N(Cc2ccccc2)C1`
Criterion met

Item: `CCN(CC)C(=O)[C@@H]1C=C2c3cccc4[nH]cc(c34)C[C@H]2N(Cc2ccc3ccccc3c2)C1`
Criterion not met

Item: CCN(CC)C(=O)[C@H]1C=C2c3cccc4[nH]cc(c34)C[C@H]2N(CC2CCCCC2)C1 [Compound 89a]
Criterion not met

Item: `CCN(CC)C(=O)[C@@H]1C=C2c3cccc4[nH]cc(c34)C[C@H]2N(Cc2cccc(C#N)c2)C1`
Criterion not met

Item: `CCN(CC)C(=O)[C@@H]1C=C2c3cccc4[nH]cc(c34)C[C@H]2N(Cc2ccncc2)C1`
Criterion met

Item: `CCCN(CC)C(=O)[C@@H]1C=C2c3cccc4[nH]cc(c34)C[C@H]2N(Cc2cccc(OC)c2)C1`
Criterion not met

Item: `CCN(CC)C(=O)[C@@H]1C=C2c3cccc4[nH]cc(c34)C[C@H]2N(Cc2ccc(F)c(OC)c2)C1`
Criterion not met

Item: `CCN(CC)C(=O)[C@@H]1C=C2c3cccc4[nH]cc(c34)C[C@H]2N(Cc2ccc(F)cc2)C1`
Criterion not met
